compounds and their reported inhibition at 10 µM
- experimental.target: Beta2 (Homo sapiens, UniProt P07550)
- Construct: purchased NIMH Psychoactive Drug Screening Program (PDSP)
- Sequence (P07550 whole entry): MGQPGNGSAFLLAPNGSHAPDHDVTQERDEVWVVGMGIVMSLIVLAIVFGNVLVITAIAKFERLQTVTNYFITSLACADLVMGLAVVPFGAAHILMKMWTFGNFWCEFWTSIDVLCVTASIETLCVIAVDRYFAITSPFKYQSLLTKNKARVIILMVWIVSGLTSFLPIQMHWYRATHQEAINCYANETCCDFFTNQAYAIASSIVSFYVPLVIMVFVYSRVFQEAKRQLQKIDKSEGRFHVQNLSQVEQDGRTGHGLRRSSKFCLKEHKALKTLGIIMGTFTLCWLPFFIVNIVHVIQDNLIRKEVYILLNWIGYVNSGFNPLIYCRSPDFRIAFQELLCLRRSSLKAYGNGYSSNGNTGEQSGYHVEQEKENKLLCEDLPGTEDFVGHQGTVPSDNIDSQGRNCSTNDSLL
- procedure.details: PDSP primary binding Beta2
- condition.label: 1.5 h; primary binding, 10,000 nM; last figure of the line = mean of the 4 before it; read-out: Beta2, PDSP raw data, mean
measure: inhibition at 10 µM

[
  {
    "smiles.text": "CCc1noc(-c2ncn3c2[C@@H](C)N=C(c2ccccc2F)c2cc(Cl)ccc2-3)n1",
    "measure": "inhibition at 10 µM",
    "result": "2.67%"
  },
  {
    "smiles.text": "C[C@H]1N=C(c2ccccc2F)c2cc(Cl)ccc2-n2cnc(-c3nc(C4CC4)no3)c21",
    "measure": "inhibition at 10 µM",
    "result": "1.75%"
  },
  {
    "smiles.text": "CCc1noc(-c2ncn3c2[C@@H](C)N=C(c2ccccc2F)c2cc(C4CC4)ccc2-3)n1",
    "measure": "inhibition at 10 µM",
    "result": "-6.06%"
  },
  {
    "smiles.text": "CCc1noc(-c2ncn3c2[C@@H](C)N=C(c2ccccc2F)c2cc(-c4ccccc4)ccc2-3)n1",
    "measure": "inhibition at 10 µM",
    "result": "0.34%"
  },
  {
    "smiles.text": "C#Cc1ccc2c(c1)C(c1ccccc1Cl)=N[C@H](C)c1c(C(=O)NC)ncn1-2",
    "measure": "inhibition at 10 µM",
    "result": "-0.28%"
  },
  {
    "smiles.text": "C#Cc1ccc2c(c1)C(c1ccccn1)=N[C@@H](C)c1c(C(=O)NC)ncn1-2",
    "measure": "inhibition at 10 µM",
    "result": "-5.89%"
  },
  {
    "smiles.text": "CCc1noc(-c2ncn3c2CN=C(c2ccccc2F)c2cc(C4CC4)ccc2-3)n1",
    "measure": "inhibition at 10 µM",
    "result": "3.97%"
  },
  {
    "smiles.text": "C#Cc1ccc2c(c1)C(c1ccccn1)=N[C@@H](C)c1c(C(=O)N(C)C)ncn1-2",
    "measure": "inhibition at 10 µM",
    "result": "-0.05%"
  },
  {
    "smiles.text": "C#Cc1ccc2c(c1)C(c1ccccc1Cl)=N[C@H](C)c1c(C(=O)N(C)CC)ncn1-2",
    "measure": "inhibition at 10 µM",
    "result": "-7.07%"
  },
  {
    "smiles.text": "CC(C)c1noc(-c2ncn3c2[C@@H](C)N=C(c2ccccc2F)c2cc(Cl)ccc2-3)n1",
    "measure": "inhibition at 10 µM",
    "result": "6.55%"
  },
  {
    "smiles.text": "C[C@H]1N=C(c2ccccc2F)c2cc(-c3ccccc3)ccc2-n2cnc(C(=O)N(C)C)c21",
    "measure": "inhibition at 10 µM",
    "result": "-0.87%"
  },
  {
    "smiles.text": "C#Cc1ccc2c(c1)C(c1ccccc1F)=N[C@H](C)c1c(C(=S)N(C)C)ncn1-2",
    "measure": "inhibition at 10 µM",
    "result": "-0.87%"
  }
]
